Where do these numbers come from? They come from ChEMBL document CHEMBL1141514.

molecular target: C-C chemokine receptor type 2 (Homo sapiens); experiment: Antagonist activity at human CCR2b receptor; type: functional; settings: read-out: IC50
Sequence (P41597 whole entry): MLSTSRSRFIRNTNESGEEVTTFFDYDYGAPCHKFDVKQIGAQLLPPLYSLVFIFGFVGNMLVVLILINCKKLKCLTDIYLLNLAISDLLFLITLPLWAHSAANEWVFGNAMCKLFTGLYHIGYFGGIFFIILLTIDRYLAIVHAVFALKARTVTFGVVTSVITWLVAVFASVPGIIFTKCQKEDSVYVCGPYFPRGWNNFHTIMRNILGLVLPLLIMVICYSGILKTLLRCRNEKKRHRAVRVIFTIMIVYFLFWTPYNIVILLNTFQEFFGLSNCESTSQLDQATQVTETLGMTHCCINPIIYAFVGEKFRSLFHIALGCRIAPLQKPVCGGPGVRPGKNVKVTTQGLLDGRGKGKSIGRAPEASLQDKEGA
Could you please report measured pIC50 for the items listed next?
The quantity pIC50 is defined as the negative base-10 logarithm of the molar concentration.

q: Look at this compound and give its reported pIC50. C=CCC(CCN1CCC2(C=Cc3ccccc32)CC1)C(=O)NCc1cc(C(F)(F)F)cc(C(F)(F)F)c1 (stereo not given)
a: 6.71

q: Look at this compound and give its reported pIC50. CSC[C@]1(C(=O)NCc2cc(C(F)(F)F)cc(C(F)(F)F)c2)CC[C@@H](N2CC[C@]3(C=Cc4ccccc43)[C@@H](C)C2)C1
a: 7.89

q: Look at this compound and give its reported pIC50. CC(C)[C@]1(C(=O)NCc2cc(F)cc(C(F)(F)F)c2)CC[C@@H](N2CC[C@]3(C=Cc4ccccc43)[C@@H](C)C2)C1
a: 8.51

q: Look at this compound and give its reported pIC50. O=C(NCc1cc(C(F)(F)F)cc(C(F)(F)F)c1)C(CCN1CCC(c2ccc(F)cc2)CC1)C1CC1 (stereo not given)
a: 6.55

q: Look at this compound and give its reported pIC50. CCCC(CCN1CCC(c2ccccc2)CC1)C(=O)NCc1cc(C(F)(F)F)cc(C(F)(F)F)c1 (stereo not given)
a: 6.90

q: Look at this compound and give its reported pIC50. C[C@H]1CN([C@@H]2CC[C@](C)(C(=O)NCc3cc(C(F)(F)F)cc(C(F)(F)F)c3)C2)CC[C@]12C=Cc1ccccc12
a: 8.05

q: Look at this compound and give its reported pIC50. C[C@H]1CN([C@@H]2CC[C@H](C(=O)NCc3cc(C(F)(F)F)cc(C(F)(F)F)c3)C2)CC[C@]12C=Cc1ccccc12
a: 7.70

q: Look at this compound and give its reported pIC50. CCC[C@]1(C(=O)NCc2cc(C(F)(F)F)cc(C(F)(F)F)c2)CC[C@@H](N2CC[C@]3(C=Cc4ccccc43)[C@@H](C)C2)C1
a: 7.80

q: Look at this compound and give its reported pIC50. CC(C)C(CCN1CCC2(C=Cc3ccccc32)CC1)C(=O)NCc1cc(C(F)(F)F)cc(C(F)(F)F)c1 (stereo not given)
a: 6.69

q: Look at this compound and give its reported pIC50. CC(C)[C@]1(C(=O)NCc2cc(C(F)(F)F)cc(C(F)(F)F)c2)CC[C@@H](N2CC[C@]3(C=Cc4ccccc43)[C@@H](C)C2)C1
a: 8.12

q: Look at this compound and give its reported pIC50. C=CCC(CCN1CCC(c2ccccc2)CC1)C(=O)NCc1cc(C(F)(F)F)cc(C(F)(F)F)c1 (stereo not given)
a: 6.19

q: Look at this compound and give its reported pIC50. CC(C)C[C@]1(C(=O)NCc2cc(C(F)(F)F)cc(C(F)(F)F)c2)CC[C@@H](N2CC[C@]3(C=Cc4ccccc43)[C@@H](C)C2)C1
a: 8.10

q: Look at this compound and give its reported pIC50. Nc1nc([C@@H](CCN2CCC(c3ccccc3)CC2)C(=O)NCc2cc(C(F)(F)F)cc(C(F)(F)F)c2)cs1
a: 6.64

q: Look at this compound and give its reported pIC50. CS[C@]1(C(=O)NCc2cc(F)cc(C(F)(F)F)c2)CC[C@@H](N2CC[C@]3(C=Cc4ccccc43)[C@@H](C)C2)C1
a: 7.17

q: Look at this compound and give its reported pIC50. C[C@H]1CN([C@@H]2CC[C@@](C(=O)NCc3cc(F)cc(C(F)(F)F)c3)(C3CC3)C2)CC[C@]12C=Cc1ccccc12
a: 8.72
